- METHOD_SUMMARY: Pharmacokinetic (PK) analysis in rats
- Assay type: in vivo, Sprague Dawley (SD) rats
- CONDITION_INFO: Sprague-Dawley, rat, po; SD rats, single intragastric administration, 5 mg/kg, plasma; read-out: Area Under Curve AUC0-t

>  <MOLECULE>
COCCNc1cc(NC(=O)N2CCCc3cc(CN(C)C(=O)C4CCOC4)c(C=O)nc32)ncc1C#N (stereo not shown) [Example 5]

>  <AUC(0-t) (ng·h/mL)>
13000

$$$$
>  <MOLECULE>
COCCNc1cc(NC(=O)N2CCCc3cc(CN(C)C(=O)C4CCOCC4)c(C=O)nc32)ncc1C#N [Example 98]

>  <AUC(0-t) (ng·h/mL)>
6700

$$$$
>  <MOLECULE>
COCCNc1cc(NC(=O)N2CCCc3cc(CN4CC[C@H](OC)C4=O)c(C=O)nc32)ncc1C#N [Example 46]

>  <AUC(0-t) (ng·h/mL)>
10700

$$$$
>  <MOLECULE>
COCCNc1cc(NC(=O)N2CCCc3cc(CN(C)C(=O)[C@H]4CCCO4)c(C=O)nc32)ncc1C#N [Example 1]

>  <AUC(0-t) (ng·h/mL)>
6800

$$$$

###

- METHOD_SUMMARY: Pharmacokinetic (PK) analysis in rats
- Type: in vivo, Sprague Dawley (SD) rats
- CONDITION_INFO: Sprague-Dawley, rat, po; SD rats, single intragastric administration, 5 mg/kg, plasma; read-out: Area Under Curve AUC0-t

>  <MOLECULE>
CN(Cc1cc2c(nc1C=O)N(C(=O)Nc1cc(N[C@H]3CCOC3)c(C#N)cn1)CCC2)C(=O)[C@H]1CCCO1 [Example 94]

>  <ENDPOINT_UNIT>
ng·h/mL

>  <AUC(0-t)>
13000

$$$$
>  <MOLECULE>
CO[C@H]1CCN(Cc2cc3c(nc2C=O)N(C(=O)Nc2cc(NC4COC4)c(C#N)cn2)CCC3)C1=O [Example 83]

>  <ENDPOINT_UNIT>
ng·h/mL

>  <AUC(0-t)>
7520

$$$$
>  <MOLECULE>
COCCNc1cc(NC(=O)N2CCCc3cc(CN(C)C(=O)[C@H]4CCCN4C)c(C=O)nc32)ncc1C#N [Example 9]

>  <ENDPOINT_UNIT>
ng·h/mL

>  <AUC(0-t)>
4400

$$$$
>  <MOLECULE>
COCCSc1cc(NC(=O)N2CCCc3cc(CN(C)C(=O)[C@H]4CCCO4)c(C=O)nc32)ncc1C#N [Example 16]

>  <ENDPOINT_UNIT>
ng·h/mL

>  <AUC(0-t)>
8760

$$$$
>  <MOLECULE>
COCC(=O)N(C)Cc1cc2c(nc1C=O)N(C(=O)Nc1cc(N3CC[C@@H](OC)C3)c(C#N)cn1)CCC2 [Example 107]

>  <ENDPOINT_UNIT>
ng·h/mL

>  <AUC(0-t)>
2630

$$$$
>  <MOLECULE>
COC[C@@H](C)Nc1cc(NC(=O)N2CCCc3cc(CN(C)C(=O)[C@H]4CCCO4)c(C=O)nc32)ncc1C#N [Example 93]

>  <ENDPOINT_UNIT>
ng·h/mL

>  <AUC(0-t)>
9420

$$$$
>  <MOLECULE>
COCCNc1cc(NC(=O)N2CCCc3cc(CN4CC[C@@H](OC)C4=O)c(C=O)nc32)ncc1C#N [Example 45]

>  <ENDPOINT_UNIT>
ng·h/mL

>  <AUC(0-t)>
12100

$$$$
>  <MOLECULE>
CO[C@@H]1CCN(c2cc(NC(=O)N3CCCc4cc(CN5CC[C@H](OC)C5=O)c(C=O)nc43)ncc2C#N)C1 [Example 54]

>  <ENDPOINT_UNIT>
ng·h/mL

>  <AUC(0-t)>
7130

$$$$
>  <MOLECULE>
COC[C@@H](C)Oc1cc(NC(=O)N2CCCc3cc(CN4CC[C@H](OC)C4=O)c(C=O)nc32)ncc1C#N [Example 50]

>  <ENDPOINT_UNIT>
ng·h/mL

>  <AUC(0-t)>
9220

$$$$
>  <MOLECULE>
CO[C@@H]1CCN(Cc2cc3c(nc2C=O)N(C(=O)Nc2cc(N[C@@H]4CCOC4)c(C#N)cn2)CCC3)C1=O [Example 87]

>  <ENDPOINT_UNIT>
ng·h/mL

>  <AUC(0-t)>
12400

$$$$
>  <MOLECULE>
COC[C@@H](C)Nc1cc(NC(=O)N2CCCc3cc(CN4CC[C@@H](OC)C4=O)c(C=O)nc32)ncc1C#N [Example 91]

>  <ENDPOINT_UNIT>
ng·h/mL

>  <AUC(0-t)>
12900

$$$$
>  <MOLECULE>
COCCNc1cc(NC(=O)N2CCCc3cc(CN(C)C(=O)[C@@H]4CCCO4)c(C=O)nc32)ncc1C#N [Example 2]

>  <ENDPOINT_UNIT>
ng·h/mL

>  <AUC(0-t)>
5820

$$$$
>  <MOLECULE>
CO[C@H]1CCN(Cc2cc3c(nc2C=O)N(C(=O)Nc2cc(N[C@H]4CCOC4)c(C#N)cn2)CCC3)C1=O [Example 84]

>  <ENDPOINT_UNIT>
ng·h/mL

>  <AUC(0-t)>
8860

$$$$
>  <MOLECULE>
CO[C@H]1CCN(Cc2cc3c(nc2C=O)N(C(=O)Nc2cc(N[C@@H]4CCOC4)c(C#N)cn2)CCC3)C1=O [Example 85]

>  <ENDPOINT_UNIT>
ng·h/mL

>  <AUC(0-t)>
7280

$$$$
>  <MOLECULE>
COC[C@@H](C)Oc1cc(NC(=O)N2CCCc3cc(CN(C)C(=O)[C@H]4CCCO4)c(C=O)nc32)ncc1C#N [Example 15]

>  <ENDPOINT_UNIT>
ng·h/mL

>  <AUC(0-t)>
7160

$$$$
>  <MOLECULE>
COC[C@@H](C)Nc1cc(NC(=O)N2CCCc3cc(CN4CC[C@H](OC)C4=O)c(C=O)nc32)ncc1C#N [Example 89]

>  <ENDPOINT_UNIT>
ng·h/mL

>  <AUC(0-t)>
3100

$$$$
>  <MOLECULE>
COCCNc1cc(NC(=O)N2CCCc3cc(CN(C)C(=O)C4COC4)c(C=O)nc32)ncc1C#N [Example 3]

>  <ENDPOINT_UNIT>
ng·h/mL

>  <AUC(0-t)>
6350

$$$$
>  <MOLECULE>
COCCNc1cc(NC(=O)N2CCCc3cc(CN(C)C(=O)[C@H]4CCCN4C(C)=O)c(C=O)nc32)ncc1C#N [Example 10]

>  <ENDPOINT_UNIT>
ng·h/mL

>  <AUC(0-t)>
5260

$$$$
>  <MOLECULE>
COCCNc1cc(NC(=O)N2CCCc3cc(CN4CCC(OC)C4=O)c(C=O)nc32)ncc1C#N (centres unmarked) [Example 44]

>  <ENDPOINT_UNIT>
ng·h/mL

>  <AUC(0-t)>
9690

$$$$
>  <MOLECULE>
CO[C@H]1CCN(Cc2cc3c(nc2C=O)N(C(=O)Nc2cc(N[C@@H]4COC[C@H]4OC)c(C#N)cn2)CCC3)C1=O [Example 86]

>  <ENDPOINT_UNIT>
ng·h/mL

>  <AUC(0-t)>
6830

$$$$

###

- METHOD_SUMMARY: Pharmacokinetic (PK) analysis in rats
- Type: in vivo, Sprague Dawley (SD) rats
- CONDITION_INFO: SD rats, single intragastric administration, 5 mg/kg, plasma

>  <TEST_SMILES>
COCCNc1cc(NC(=O)N2CCCc3cc(CN(C)C(=O)C4COC4)c(C=O)nc32)ncc1C#N

>  <Peak Time tmax>
2 h

$$$$
>  <TEST_SMILES>
CN(Cc1cc2c(nc1C=O)N(C(=O)Nc1cc(N[C@H]3CCOC3)c(C#N)cn1)CCC2)C(=O)[C@H]1CCCO1

>  <Peak Time tmax>
2 h

$$$$
>  <TEST_SMILES>
CO[C@H]1CCN(Cc2cc3c(nc2C=O)N(C(=O)Nc2cc(N[C@@H]4CCOC4)c(C#N)cn2)CCC3)C1=O

>  <Peak Time tmax>
2 h

$$$$

###

- METHOD_SUMMARY: Pharmacokinetic (PK) analysis in rats
- Assay type: in vivo, Sprague Dawley (SD) rats
- CONDITION_INFO: Sprague-Dawley, rat, po; SD rats, single intragastric administration, 5 mg/kg, plasma; read-out: Mean Residence Time MRT

>  <TEST_SMILES>
CO[C@H]1CCN(Cc2cc3c(nc2C=O)N(C(=O)Nc2cc(N[C@@H]4COC[C@H]4OC)c(C#N)cn2)CCC3)C1=O

>  <MRT [h]>
2.7

$$$$
>  <TEST_SMILES>
COCCNc1cc(NC(=O)N2CCCc3cc(CN(C)C(=O)C4CCOCC4)c(C=O)nc32)ncc1C#N

>  <MRT [h]>
3.1

$$$$
>  <TEST_SMILES>
COCCNc1cc(NC(=O)N2CCCc3cc(CN(C)C(=O)[C@@H]4CCCO4)c(C=O)nc32)ncc1C#N

>  <MRT [h]>
2.5

$$$$
>  <TEST_SMILES>
CO[C@@H]1CCN(c2cc(NC(=O)N3CCCc4cc(CN5CC[C@H](OC)C5=O)c(C=O)nc43)ncc2C#N)C1

>  <MRT [h]>
2.7

$$$$
>  <TEST_SMILES>
COC[C@@H](C)Nc1cc(NC(=O)N2CCCc3cc(CN4CC[C@H](OC)C4=O)c(C=O)nc32)ncc1C#N

>  <MRT [h]>
2.5

$$$$
>  <TEST_SMILES>
COC[C@@H](C)Nc1cc(NC(=O)N2CCCc3cc(CN4CC[C@@H](OC)C4=O)c(C=O)nc32)ncc1C#N

>  <MRT [h]>
2.8

$$$$
>  <TEST_SMILES>
COC[C@@H](C)Oc1cc(NC(=O)N2CCCc3cc(CN4CC[C@H](OC)C4=O)c(C=O)nc32)ncc1C#N

>  <MRT [h]>
2.5

$$$$
>  <TEST_SMILES>
CN(Cc1cc2c(nc1C=O)N(C(=O)Nc1cc(N[C@H]3CCOC3)c(C#N)cn1)CCC2)C(=O)[C@H]1CCCO1

>  <MRT [h]>
2.8

$$$$
>  <TEST_SMILES>
COCCNc1cc(NC(=O)N2CCCc3cc(CN(C)C(=O)[C@H]4CCCN4C(C)=O)c(C=O)nc32)ncc1C#N

>  <MRT [h]>
2.8

$$$$
>  <TEST_SMILES>
CO[C@H]1CCN(Cc2cc3c(nc2C=O)N(C(=O)Nc2cc(NC4COC4)c(C#N)cn2)CCC3)C1=O

>  <MRT [h]>
3

$$$$
>  <TEST_SMILES>
COCCSc1cc(NC(=O)N2CCCc3cc(CN(C)C(=O)[C@H]4CCCO4)c(C=O)nc32)ncc1C#N

>  <MRT [h]>
2.5

$$$$
>  <TEST_SMILES>
COC[C@@H](C)Nc1cc(NC(=O)N2CCCc3cc(CN(C)C(=O)[C@H]4CCCO4)c(C=O)nc32)ncc1C#N

>  <MRT [h]>
2.5

$$$$
>  <TEST_SMILES>
CO[C@@H]1CCN(Cc2cc3c(nc2C=O)N(C(=O)Nc2cc(N[C@@H]4CCOC4)c(C#N)cn2)CCC3)C1=O

>  <MRT [h]>
2.6

$$$$
>  <TEST_SMILES>
CO[C@H]1CCN(Cc2cc3c(nc2C=O)N(C(=O)Nc2cc(N[C@H]4CCOC4)c(C#N)cn2)CCC3)C1=O

>  <MRT [h]>
3.1

$$$$
